Molecular target: α-glucosidase I and II
Assay: Inhibition of purified processing α-glucosidase I and II
Conditions: mixture of purified α-glucosidases I and II
Field: pIC50. Provide a value for each of the compounds that follow.
Answers are plain numbers, as −log10 of the molar value.

INSERT INTO results (mol_smiles, numeric_result) VALUES
  ('CCCCN1C[C@H](O)[C@@H](O)[C@@H](O)[C@H]1CO', 2.67);

Query string: Form field: pIC50 recorded for CCCCN1C[C@H](O)[C@@H](O)[C@H](O)[C@H]1CO with α-glucosidase I and II (enter value)
Result string: 6.44

----------
Target: UDP-glucose:N-acylsphingosine glucosyltransferase
Test: Inhibition of UDP-glucose:N-acylsphingosine glucosyltransferase
Type: biochemical, rat brain, mouse macrophage (WEHI-3B)
Conditions: highest concentrations tested; read-out: IC50 (not inhibitory)
pIC50: −log10 of the molar value.
Field: pIC50. Provide a value for each of the compounds that follow.

INSERT INTO assay_data (mol_smiles, result) VALUES
  ('OC[C@H]1NC[C@H](O)[C@@H](O)[C@@H]1O', '< 2.30');

Next, consider the following compound.
Query string: // query pIC50 value for entry OC[C@H]1NC[C@H](O)[C@@H](O)[C@H]1O
Result string: < 2.30

----------
Target: UDP-glucose:N-acylsphingosine glucosyltransferase
Test: Inhibition of UDP-glucose:N-acylsphingosine glucosyltransferase
Type: biochemical, rat brain, mouse macrophage (WEHI-3B)
Conditions: rat brain or mouse macrophage homogenates; read-out: IC50
endpoint: IC50 (µM)
Give bare numbers, in µM.

INSERT INTO measurements (mol_smiles, unit_spec, numeric_result) VALUES
  ('CCCCN1C[C@H](O)[C@@H](O)[C@@H](O)[C@H]1CO', 'µM', 60.9);

Next, consider the following molecule.
Query string: // query IC50 value for entry CCCCN1C[C@H](O)[C@@H](O)[C@H](O)[C@H]1CO
Result string: 2.95

Recorded values, source patent US6291657A.
